Consider the following binders and their measured CRF1R EC50 readings.
# ASSAYED_SYSTEM: corticotropin releasing factor 1 receptor
# EXPERIMENT: cell-based or functional assay
Ends that are not written are not given here.

# BINDER, SCALE_UNIT, CRF1R EC50
data = [
    ("ZGPPISIDLPFYLLRKMIEIEKQEKEKQQAANNALLLDTI (C-terminal amide) [SEQ ID NO 230]", "nM", 219),
    ("ZGPPISIDLPFQLLRKVIEIEKQEKEKQQAANNANLLANI (C-terminal amide) [SEQ ID NO 275]", "nM", 1000),
    ("ZGPPISIDLPFQLLRKAIEIEKQEKEKQQAANNALLLDTI (C-terminal amide) [SEQ ID NO 365]", "nM", 1000),
    ("ZGPPISIDLPLQLLRKVIEIEKQEKEKQQAANNALLLATI (C-terminal amide) [SEQ ID NO 349]", "nM", 1000),
    ("ZGPPISIDLPYYLLRKMIEIEKQEKEKQQAANNALLLATI (C-terminal amide) [SEQ ID NO 225]", "nM", 220),
    ("ZGPPISIDLPYWLLRKMIEIEKQEKEKQQAANNALLLDTI (C-terminal amide) [SEQ ID NO 310]", "nM", 1000),
    ("DNPSLSIDLPLFLLRTLLELEKTQSQRERAEQNARIFARV-NH2 [SEQ ID NO 334]", "nM", 1000),
    ("ZGPPISIDVPYWLLRKVIEIEKQEKEKQQAANNARLLARI (C-terminal amide) [SEQ ID NO 373]", "nM", 1000),
    ("PSLSIDLPLLLLRTLLELEKTQSQRERAEQNARIFARV-NH2 [SEQ ID NO 333]", "nM", 1000),
    ("NDDPPISIDLPFQLLRNMIEMARIENEREQAGLNAKYLAEV-NH2 [SEQ ID NO 258]", "nM", 1000),
    ("DNPSLSIDVPLLLLRTLLELEKTQSQRERAEQNARIFARV-NH2 [SEQ ID NO 384]", "nM", 1000),
    ("ZGPPISIDLPLHLLRKMIEIEKQEKEKQQAANNALLLATI (C-terminal amide) [SEQ ID NO 241]", "nM", 308),
]
